biological target: Telomerase reverse transcriptase (Homo sapiens, UniProt O14746); assay: Inhibition of telomerase in human SGC7901 cells by TRAP assay; assay type: cell-based, SGC-7901
Sequence (O14746 whole entry): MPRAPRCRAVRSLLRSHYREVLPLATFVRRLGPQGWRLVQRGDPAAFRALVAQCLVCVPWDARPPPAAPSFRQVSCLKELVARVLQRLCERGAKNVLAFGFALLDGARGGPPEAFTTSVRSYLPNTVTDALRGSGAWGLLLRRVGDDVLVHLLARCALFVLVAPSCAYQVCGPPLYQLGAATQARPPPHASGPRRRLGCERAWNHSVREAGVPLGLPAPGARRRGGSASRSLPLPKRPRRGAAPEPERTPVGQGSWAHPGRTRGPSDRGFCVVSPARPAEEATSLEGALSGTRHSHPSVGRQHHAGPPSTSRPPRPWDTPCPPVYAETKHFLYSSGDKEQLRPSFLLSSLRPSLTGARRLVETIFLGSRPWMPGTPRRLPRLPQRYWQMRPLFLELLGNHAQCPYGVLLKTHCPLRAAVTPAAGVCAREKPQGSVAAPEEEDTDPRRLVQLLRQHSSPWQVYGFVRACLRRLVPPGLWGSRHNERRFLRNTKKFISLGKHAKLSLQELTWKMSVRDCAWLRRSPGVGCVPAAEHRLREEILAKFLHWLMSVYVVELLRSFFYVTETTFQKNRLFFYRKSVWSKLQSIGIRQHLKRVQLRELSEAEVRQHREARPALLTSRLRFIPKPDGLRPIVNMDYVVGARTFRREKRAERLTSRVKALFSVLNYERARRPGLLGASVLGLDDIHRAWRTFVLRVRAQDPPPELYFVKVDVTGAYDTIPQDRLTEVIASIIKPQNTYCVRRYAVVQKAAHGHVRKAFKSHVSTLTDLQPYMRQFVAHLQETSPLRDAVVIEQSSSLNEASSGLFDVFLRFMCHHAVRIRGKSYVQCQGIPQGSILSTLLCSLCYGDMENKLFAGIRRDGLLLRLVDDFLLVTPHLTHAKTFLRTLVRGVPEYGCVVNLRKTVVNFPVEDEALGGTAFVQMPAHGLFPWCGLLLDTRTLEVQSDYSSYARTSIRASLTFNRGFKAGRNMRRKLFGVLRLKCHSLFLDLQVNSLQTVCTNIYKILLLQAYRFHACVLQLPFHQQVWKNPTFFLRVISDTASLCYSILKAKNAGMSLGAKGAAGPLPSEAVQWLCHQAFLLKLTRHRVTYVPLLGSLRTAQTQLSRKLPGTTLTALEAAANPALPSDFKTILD
OBSERVATION_TYPE: pIC50
Bear in mind: pIC50 is minus log10 of a mol/L concentration; give just that figure.

Worked examples, 5 molecules total:
MOLECULE	pIC50
CC(=O)N1N=C(c2ccc([N+](=O)[O-])cc2)CC1c1ccc2c(c1)OCCO2 (stereo not given)	4.43
CC(=O)N1N=C(c2ccccc2)CC1c1ccc2c(c1)OCO2 (stereo not given)	5.47
CC(=O)N1N=C(c2ccc(Cl)cc2)CC1c1ccc2c(c1)OCCO2 (stereo not given)	4.62
CC(=O)N1N=C(c2ccc([N+](=O)[O-])cc2)CC1c1ccc2c(c1)OCO2 (stereo not given)	5.06
CC(=O)N1N=C(c2ccc(Cl)cc2)CC1c1ccc2c(c1)OCCCO2 (stereo not given)	4.08

Exercise: State its pIC50 for this molecule: CC(=O)N1N=C(c2ccc(F)cc2)CC1c1ccc2c(c1)OCO2 (stereo not given)
Solution: 5.14

Exercise: Give the reported value of pIC50 for this record: CC(=O)N1N=C(c2ccc(Br)cc2)CC1c1ccc2c(c1)OCCO2 (stereo not given)
Solution: 4.64

Exercise: Respond only with pIC50 recorded for CC(=O)N1N=C(c2ccc(F)cc2)CC1c1ccc2c(c1)OCCCO2 (stereo not given)
Solution: 4.08

Exercise: Provide only the value of recorded pIC50 for CC(=O)N1N=C(c2ccc(F)cc2)CC1c1ccc2c(c1)OCCO2 (stereo not given)
Solution: 4.59

Exercise: Report pIC50, nothing else, for this molecule: CC(=O)N1N=C(c2ccc(Br)cc2)CC1c1ccc2c(c1)OCCCO2 (stereo not given)
Solution: 4.12
